System: HIV-1 integrase mutant virus Y143R
Test: Single cycle infectivity assay in HeLa P4-2 cells, integrase mutant Y143R virus
Assay type: cell-based
Details: fold shift in IC50 versus wild type IIIB
Could you please report measured Y143R (shift) for the items listed next?
Give bare numbers, in fold.

Use the examples below as a reference point.
>  <molecule>
CCC12CCC(NC(=O)C(=O)N(C)C)(CO1)c1nc(C(=O)NCc3ccc(F)cc3)c(O)c(=O)n1C2 (single isomer, unassigned) [Example 22A]

>  <measurement_unit>
fold

>  <result_number>
5

$$$$
>  <molecule>
CC1C2CCC(N(C)C(=O)C(=O)N(C)C)(CO2)c2nc(C(=O)NCc3ccc(F)cc3)c(O)c(=O)n21 (single isomer, unassigned) [Example 27C]

>  <measurement_unit>
fold

>  <result_number>
3

$$$$
>  <molecule>
CN(C(=O)C(=O)N1CCOCC1)C12CCC(CC1)Cn1c2nc(C(=O)NCc2ccc(F)cc2)c(O)c1=O

>  <measurement_unit>
fold

>  <result_number>
1

$$$$
>  <molecule>
CCCN(C(=O)C(=O)N(C)C)C12CCC(Cn3c1nc(C(=O)NCc1ccc(F)cc1)c(O)c3=O)OC2 (stereo not shown)

>  <measurement_unit>
fold

>  <result_number>
7

$$$$
>  <molecule>
CC1C2CCC(NC(=O)C(=O)N(C)C)(CO2)c2nc(C(=O)NCc3ccc(F)cc3)c(O)c(=O)n21 (single isomer, unassigned) [Example 29B]

>  <measurement_unit>
fold

>  <result_number>
2

$$$$

Batch of 3 molecules: report Y143R (shift) for each.
1. CN(C)C(=O)C(=O)N(C)C12CCC(CC1)Cn1c2nc(C(=O)NCc2ccc(F)cc2)c(O)c1=O (single isomer, unassigned) [Example 24A]
2. Cc1cc(CNC(=O)c2nc3n(c(=O)c2O)CC2CCC3(N(C)C(=O)C(=O)N(C)C)CO2)ccc1F (single isomer, unassigned) [Example 11A]
3. CCC1C2CCC(N(C)C(=O)C(=O)N(C)C)(CO2)c2nc(C(=O)NCc3ccc(F)cc3)c(O)c(=O)n21 (single isomer, unassigned) [Example 25A]

Result block:
1
2
7

Batch of 5 molecules: report Y143R (shift) for each.
1. CN(C)C(=O)C(=O)N(C)C12CCC(Cn3c1nc(C(=O)NCc1ccc(F)cc1)c(O)c3=O)OC2 (single isomer, unassigned) [Example 10A]
2. CCC1C2CCC(N(C)C(=O)C(=O)N(C)C)(CO2)c2nc(C(=O)NCc3ccc(F)cc3)c(O)c(=O)n21 (single isomer, unassigned) [Example 25B]
3. CC1C2CCC(NC(=O)C(=O)N(C)C)(CO2)c2nc(C(=O)NCc3ccc(F)cc3)c(O)c(=O)n21 (single isomer, unassigned) [Example 29D]
4. CN(C)C(=O)C(=O)N(C)C12CCC(Cn3c1nc(C(=O)NCc1ccc(F)cc1)c(O)c3=O)OC2 (single isomer, unassigned) [Example 23B]
5. CN(C)C(=O)C(=O)NC12CCC(CC1)Cn1c2nc(C(=O)NCc2ccc(F)cc2)c(O)c1=O

Result block:
1. 1
2. 1
3. 1
4. 7
5. 1

* * *

System: HIV-1 wild type IIIB
Assay: Single cycle infectivity assay in HeLa P4-2 cells, wild type virus
Type: cell-based
Settings: Human immunodeficiency virus 1, IIIB, HeLaP4-2, wild type IIIB
assay_metric: IC50 (nM)
Give bare numbers, in nM.

Use the examples below as a reference point.
>  <compound>
CN(C(=O)C(=O)N1CCOCC1)C12CCC(Cn3c1nc(C(=O)NCc1ccc(F)cc1)c(O)c3=O)C2 (centres unmarked)

>  <assay_system>
HIV-1 wild type IIIB

>  <assay_metric>
IC50

>  <result_number>
43

$$$$
>  <compound>
CN(C)C(=O)C(=O)N(C)C12CCC(CC1)Cn1c2nc(C(=O)NCc2ccc(F)cc2)c(O)c1=O (single isomer, unassigned) [Example 24A]

>  <assay_system>
HIV-1 wild type IIIB

>  <assay_metric>
IC50

>  <result_number>
15

$$$$
>  <compound>
CCCN(C(=O)C(=O)N(C)C)C12CCC(Cn3c1nc(C(=O)NCc1ccc(F)cc1)c(O)c3=O)OC2 (centres unmarked)

>  <assay_system>
HIV-1 wild type IIIB

>  <assay_metric>
IC50

>  <result_number>
8

$$$$
>  <compound>
CN(C)C(=O)C(=O)N(C)C1CCCCn2c1nc(C(=O)NCc1ccc(F)cc1)c(O)c2=O (centres unmarked) [Compound Y, reference compound]

>  <assay_system>
HIV-1 wild type IIIB

>  <assay_metric>
IC50

>  <result_number>
16

$$$$

Query block: Supply measured IC50 of Cc1nnc(C(=O)N(C)C23CCC(Cn4c2nc(C(=O)NCc2ccc(F)cc2)c(O)c4=O)C3)o1 (centres unmarked) in your reply.
Result block: 80
